# Tgt: mGlyT-1b (Mus musculus)
# Experiment Description: Glycine uptake inhibition assay (mGlyT-1b)
# Assay type: cell-based
# Experimental Conditions: [3H]-glycine uptake in Flp-in-CHO cells transfected with mGlyT-1b cDNA; values of some enantiomers
Please provide measured IC50 for the entries that follow.
State just the number; it will be interpreted in nM.

Query: Let me know recorded IC50 for O=C1NCC(c2ccccc2)C12CCN([C@@H]1CCCC[C@@H]1c1ccccc1)CC2 (mixture of isomers) , thanks.
Reply: 61

Query: Let me know recorded IC50 for O=C1NCC(c2ccccc2)C12CCN(C1CCCCC1(O)c1ccc(F)cc1)CC2 (stereo not shown) , thanks.
Reply: 70

Query: Let me know recorded IC50 for O=C1NCC(c2ccc(F)cc2)C12CCN([C@@H]1CCCC[C@@H]1c1ccc(C(F)(F)F)cc1)CC2 (mixture of isomers) , thanks.
Reply: 91

Query: Let me know recorded IC50 for O=C1NCC(c2ccc(F)cc2)C12CCN(C1COCCC1(O)c1ccccc1)CC2 (stereo not shown) , thanks.
Reply: 91

----------
Please provide measured IC50 for the entries that follow.
# Tgt: mGlyT-1b (Mus musculus, UniProt P28571)
# Sequence (P28571 1-651 isoform P28571-2): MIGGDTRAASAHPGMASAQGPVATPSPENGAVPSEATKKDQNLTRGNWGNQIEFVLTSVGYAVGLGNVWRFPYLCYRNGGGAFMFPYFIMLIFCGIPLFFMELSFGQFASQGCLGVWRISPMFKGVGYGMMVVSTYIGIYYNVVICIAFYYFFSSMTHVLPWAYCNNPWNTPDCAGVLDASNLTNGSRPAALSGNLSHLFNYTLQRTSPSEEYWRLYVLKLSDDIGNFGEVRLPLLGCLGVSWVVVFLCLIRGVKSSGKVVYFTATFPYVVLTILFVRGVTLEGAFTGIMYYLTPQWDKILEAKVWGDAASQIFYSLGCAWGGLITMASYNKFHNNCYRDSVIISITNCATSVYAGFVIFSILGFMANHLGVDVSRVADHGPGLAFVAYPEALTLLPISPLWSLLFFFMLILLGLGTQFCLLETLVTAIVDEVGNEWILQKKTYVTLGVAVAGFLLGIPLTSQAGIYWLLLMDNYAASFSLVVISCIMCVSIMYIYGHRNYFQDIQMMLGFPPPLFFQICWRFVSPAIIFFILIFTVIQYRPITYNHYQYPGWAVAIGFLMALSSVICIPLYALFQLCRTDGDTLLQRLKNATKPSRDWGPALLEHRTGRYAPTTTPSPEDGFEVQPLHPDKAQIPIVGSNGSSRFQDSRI
# Experiment Description: Glycine uptake inhibition assay (mGlyT-1b)
# Type: cell-based
# Experimental Conditions: [3H]-glycine uptake in Flp-in-CHO cells transfected with mGlyT-1b cDNA; values of some enantiomers
State just the number; it will be interpreted in nM.

Query: Let me know recorded IC50 for Cc1ccc([C@H]2CCCC[C@H]2N2CCC3(CC2)C(=O)NCC3c2ccccc2)cc1 (mixture of isomers) [Example 2] , thanks.
Reply: 105

Query: Let me know recorded IC50 for O=C1NCC(c2ccc(F)cc2)C12CCN(C1CCCCC1(O)c1cccc(Cl)c1)CC2 (stereo not shown) [Example 17] , thanks.
Reply: 73

Query: Let me know recorded IC50 for O=C1NCC(c2ccc(F)cc2)C12CCN(C1CCCCC1(O)c1ccccc1F)CC2 (stereo not shown) [Example 16] , thanks.
Reply: 69

Query: Let me know recorded IC50 for O=C1NCC(c2ccccc2)C12CCN([C@@H]1CCCC[C@@H]1c1ccc(F)cc1)CC2 (mixture of isomers) [Example 6] , thanks.
Reply: 48

Source listed as patent US7173133B2.
